Hello, the source for this data is patent US20240255522A1, in case you need it.

target: HLA-DRB1*08:01 MHCII molecule (human); experiment: competition ELISA; 25 nM huCLIP-bio; details: modification not given
readout-name: IC50 (nM)
Express the result in nM but write the number alone.

// query IC50 value for entry PVSQMRMATPLLMRP [mCLIP]
36.6
